Details: in isopropanol, 318.65 K
MEASURE NAME: solubility (mole fraction)
Respond numerically, and do not add a unit to the figure.

Sure, the documented solubility (mole fraction) for "COc1cc(Cc2cnc(N)nc2N)cc(OC)c1OC" is 0.00106

----------
Details: in ethanol, 303.45 K
MEASURE NAME: solubility (mole fraction)
Please give the numeric answer without any surrounding text.

The recorded solubility (mole fraction) for entry "COc1cc(Cc2cnc(N)nc2N)cc(OC)c1OC" equals 0.00112

----------
Conditions: in ethyl acetate, 308.15 K
MEASURE NAME: solubility (mole fraction)
The answer should be written as a number, with no unit following it.

# solubility (mole fraction) (compound: "COc1cc(Cc2cnc(N)nc2N)cc(OC)c1OC" ) is 0.000481

----------
Details: in water, 318.65 K
MEASURE NAME: solubility (mole fraction)

Query "COc1cc(Cc2cnc(N)nc2N)cc(OC)c1OC" yields solubility (mole fraction) of 6.05e-05

----------
Details: in isopropanol, 298.45 K
MEASURE NAME: solubility (mole fraction)
Give the value as a plain number.

Field solubility (mole fraction) (entry "COc1cc(Cc2cnc(N)nc2N)cc(OC)c1OC" ) reads 0.000294

----------
Conditions: in water, 298.45 K
MEASURE NAME: solubility (mole fraction)
Reply with the value as a number alone.

// solubility (mole fraction) value for "COc1cc(Cc2cnc(N)nc2N)cc(OC)c1OC" : 2.49e-05

----------
Settings: in water, 303.45 K
MEASURE NAME: solubility (mole fraction)
I only need the number, thanks.

Reported solubility (mole fraction) ( "COc1cc(Cc2cnc(N)nc2N)cc(OC)c1OC" ) = 3.02e-05

----------
Conditions: in ethanol, 308.15 K
MEASURE NAME: solubility (mole fraction)
The answer should be a number; do not append a unit.

get_value(item= "COc1cc(Cc2cnc(N)nc2N)cc(OC)c1OC" , readout=solubility (mole fraction)) returns 0.00134

----------
Conditions: in acetonitrile, 322.65 K
MEASURE NAME: solubility (mole fraction)
Output: the number by itself.

The measured solubility (mole fraction) associated with "COc1cc(Cc2cnc(N)nc2N)cc(OC)c1OC" reads 0.00127

----------
Settings: in isopropanol, 308.15 K
MEASURE NAME: solubility (mole fraction)
# print the numeric value only

The measured solubility (mole fraction) associated with "COc1cc(Cc2cnc(N)nc2N)cc(OC)c1OC" reads 0.000543

----------
Settings: in water, 293.15 K
MEASURE NAME: solubility (mole fraction)
Simply state the number, no unit and no words.

Data point: "COc1cc(Cc2cnc(N)nc2N)cc(OC)c1OC" ; solubility (mole fraction) = 2e-05

----------
Details: in acetonitrile, 308.15 K
MEASURE NAME: solubility (mole fraction)
# answer = number (no unit)

// solubility (mole fraction) value for "COc1cc(Cc2cnc(N)nc2N)cc(OC)c1OC" : 0.000664

----------
Details: in ethyl acetate, 293.15 K
MEASURE NAME: solubility (mole fraction)
I only need the number, thanks.

The recorded solubility (mole fraction) for "COc1cc(Cc2cnc(N)nc2N)cc(OC)c1OC" is 0.000276

----------
Conditions: in ethyl acetate, 318.65 K
MEASURE NAME: solubility (mole fraction)
Lab note: jot the number down without any unit.

Entry under test: "COc1cc(Cc2cnc(N)nc2N)cc(OC)c1OC" . Its solubility (mole fraction) was 0.000773

Source listed as BigSolDB 2.1.
